# SYSTEM_UNDER_TEST: T1, recombinant human TfR-1, His-tagged (Sino Biological 11020-H07H) (human, UniProt P02786 89-760)
# T1 construct: bought; His-tagged; also called hTfR1; hTfR-1
# TEST_NAME: SPR, His-captured TfR1
METRIC_NAME: koff (s⁻¹)

Some entries whose results are on file:
[
  {
    "BINDER": "Clone C variant 10 VNAR-hFc (Fc fusion, not shown: a dimerising Fc or GST) ARVDQTPQTITKETGESLTINCVLRDSNCALSSTYWYRKKSGSTNEENISKGGRYVETVNSGSKSFSLRINDLTVEDSGTYRCNVVQYPFLENYFWCDVYGDGTAVTVN",
    "koff, s⁻¹": 0.000389
  },
  {
    "BINDER": "Clone C variant 23 VNAR-hFc (Fc fusion, not shown: a dimerising Fc or GST) ARVDQTPQTITKETGESLTINCVLRDSNCALSSTYWYRKKSGSTNEENISKGGRYVETVNSGSKSFSLRINDLTVEDSGTYRCNVVQYPSQQNYFWCDVYGDGTAVTVN",
    "koff, s⁻¹": 0.000432
  },
  {
    "BINDER": "Clone C variant 17 VNAR-hFc (Fc fusion, not shown: a dimerising Fc or GST) ARVDQTPQTITKETGESLTINCVLRDSNCALSSTYWYRKKSGSTNEENISKGGRYVETVNSGSKSFSLRINDLTVEDSGTYRCNVVQYPQYDNYFWCDVYGDGTAVTVN",
    "koff, s⁻¹": "8.13e-05"
  },
  {
    "BINDER": "Clone C variant 24 VNAR-hFc (Fc fusion, not shown: a dimerising Fc or GST) ARVDQTPQTITKETGESLTINCVLRDSNCALSSTYWYRKKSGSTNEENISKGGRYVETVNSGSKSFSLRINDLTVEDSGTYRCNVVQYPSWDNYFWCDVYGDGTAVTVN",
    "koff, s⁻¹": 0.000194
  },
  {
    "BINDER": "Clone C VNAR-hFc fusion (Fc fusion, not shown: a dimerising Fc or GST, bivalent VNAR-Fc; also called Clone C-hFc) ARVDQTPQTITKETGESLTINCVLRDSNCALSSTYWYRKKSGSTNEENISKGGRYVETVNSGSKSFSLRINDLTVEDSGTYRCNVVQYPSYNNYFWCDVYGDGTAVTVN",
    "koff, s⁻¹": 0.000145
  }
]

(A) Clone C variant 19 VNAR-hFc (Fc fusion, not shown: a dimerising Fc or GST) ARVDQTPQTITKETGESLTINCVLRDSNCALSSTYWYRKKSGSTNEENISKGGRYVETVNSGSKSFSLRINDLTVEDSGTYRCNVVQYPRTNNYFWCDVYGDGTAVTVN
(B) Clone C variant 6 VNAR-hFc (Fc fusion, not shown: a dimerising Fc or GST) ARVDQTPQTITKETGESLTINCVLRDSNCALSSTYWYRKKSGSTNEENISKGGRYVETVNSGSKSFSLRINDLTVEDSGTYRCNVVQWPSIQSPFWCDVYGDGTAVTVN
Of A and B , which carries the smaller reported koff figure? Field: selected label. Fill in the label of the entry you choose.
A
(A: 0.000109 s⁻¹, B: 0.000955 s⁻¹)
